Reference source: ChEMBL document CHEMBL1155825

Exercise: for every item that follows, state its recorded IC50.
system: Leishmania donovani; assay: Antiparasitic activity against Leishmania donovani […]; type: functional, organism-based
Number only, in µM; omit the unit.

Challenge: Could you please provide reported IC50 for C[n+]1ccc2c(c1)[nH]c1ccc(Cl)cc12 [NOSTOCARBOLINE] ? Thanks!
Response given: 34.3

Challenge: Could you please provide reported IC50 for O=C(O)c1cn(C2CC2)c2cc(N3CCN(Cc4ccc(C[n+]5ccc6c(c5)[nH]c5ccc(Cl)cc56)cc4)CC3)c(F)cc2c1=O ? Thanks!
Response given: 61.6

Challenge: Could you please provide reported IC50 for Clc1ccc2[nH]c3c[n+](CCOCC[n+]4ccc5c(c4)[nH]c4ccc(Cl)cc45)ccc3c2c1 ? Thanks!
Response given: 8.6

Challenge: Could you please provide reported IC50 for Clc1ccc2[nH]c3c[n+](C/C=C\C[n+]4ccc5c(c4)[nH]c4ccc(Cl)cc45)ccc3c2c1 ? Thanks!
Response given: 9.6

Challenge: Could you please provide reported IC50 for Clc1ccc2[nH]c3c[n+](Cc4cccc(C[n+]5ccc6c(c5)[nH]c5ccc(Cl)cc56)c4)ccc3c2c1 ? Thanks!
Response given: 0.2

Challenge: Could you please provide reported IC50 for Clc1ccc2[nH]c3c[n+](Cc4ccc(-c5ccc(C[n+]6ccc7c(c6)[nH]c6ccc(Cl)cc67)cc5)cc4)ccc3c2c1 ? Thanks!
Response given: 68.4

Challenge: Could you please provide reported IC50 for Clc1ccc2[nH]c3c[n+](CC#CC[n+]4ccc5c(c4)[nH]c4ccc(Cl)cc45)ccc3c2c1 ? Thanks!
Response given: 34.7

Challenge: Could you please provide reported IC50 for Clc1ccc2[nH]c3c[n+](CCCCCCCCCC[n+]4ccc5c(c4)[nH]c4ccc(Cl)cc45)ccc3c2c1 ? Thanks!
Response given: 0.9

---

test system: Leishmania donovani; assay: Antiparasitic activity against Leishmania donovani […]; format: functional, organism-based
Exercise: for every item that follows, state its recorded pIC50.
Convention used: pIC50 is expressed as -log10 of the molar concentration.

Challenge: Could you please provide reported pIC50 for Clc1ccc2[nH]c3c[n+](CCCCCC[n+]4ccc5c(c4)[nH]c4ccc(Cl)cc45)ccc3c2c1 ? Thanks!
Response given: 5.18

Challenge: Could you please provide reported pIC50 for Clc1ccc2[nH]c3c[n+](CCCCCCCC[n+]4ccc5c(c4)[nH]c4ccc(Cl)cc45)ccc3c2c1 ? Thanks!
Response given: 5.64

Challenge: Could you please provide reported pIC50 for Clc1ccc2[nH]c3c[n+](CCCCCCCCCCCC[n+]4ccc5c(c4)[nH]c4ccc(Cl)cc45)ccc3c2c1 ? Thanks!
Response given: 6.22

Challenge: Could you please provide reported pIC50 for Clc1ccc2[nH]c3c[n+](Cc4ccc(C[n+]5ccc6c(c5)[nH]c5ccc(Cl)cc56)cc4)ccc3c2c1 ? Thanks!
Response given: 4.70

---

test: Selectivity index, ratio of IC50 for rat L6 cells to IC50 for Plasmodium falciparum K1; type: toxicity, cell-based; conditions: rat L6 cells (cytotoxicity) versus Plasmodium falciparum K1, read-out: Ratio IC50
Exercise: for every item that follows, state its recorded selectivity ratio.
Quick one: just the number, no unit, thanks!

Challenge: Could you please provide reported selectivity ratio for Clc1ccc2[nH]c3c[n+](Cc4ccc(C[n+]5ccc6c(c5)[nH]c5ccc(Cl)cc56)cc4)ccc3c2c1 ? Thanks!
Response given: 78

Challenge: Could you please provide reported selectivity ratio for Clc1ccc2[nH]c3c[n+](CCCCCCCCCCCC[n+]4ccc5c(c4)[nH]c4ccc(Cl)cc45)ccc3c2c1 ? Thanks!
Response given: 186

Challenge: Could you please provide reported selectivity ratio for Clc1ccc2[nH]c3c[n+](Cc4cccc(C[n+]5ccc6c(c5)[nH]c5ccc(Cl)cc56)c4)ccc3c2c1 ? Thanks!
Response given: 32

Challenge: Could you please provide reported selectivity ratio for C[n+]1ccc2c(c1)[nH]c1ccc(Cl)cc12 ? Thanks!
Response given: 622

Challenge: Could you please provide reported selectivity ratio for Clc1ccc2[nH]c3c[n+](Cc4ccc(-c5ccc(C[n+]6ccc7c(c6)[nH]c6ccc(Cl)cc67)cc5)cc4)ccc3c2c1 ? Thanks!
Response given: 408

Challenge: Could you please provide reported selectivity ratio for Clc1ccc2[nH]c3c[n+](CCCCCC[n+]4ccc5c(c4)[nH]c4ccc(Cl)cc45)ccc3c2c1 ? Thanks!
Response given: 1810

Challenge: Could you please provide reported selectivity ratio for Clc1ccc2[nH]c3c[n+](CC#CC[n+]4ccc5c(c4)[nH]c4ccc(Cl)cc45)ccc3c2c1 ? Thanks!
Response given: 39

Challenge: Could you please provide reported selectivity ratio for Clc1ccc2[nH]c3c[n+](CCOCC[n+]4ccc5c(c4)[nH]c4ccc(Cl)cc45)ccc3c2c1 ? Thanks!
Response given: 2620

Challenge: Could you please provide reported selectivity ratio for Clc1ccc2[nH]c3c[n+](CCCCCCCCCC[n+]4ccc5c(c4)[nH]c4ccc(Cl)cc45)ccc3c2c1 ? Thanks!
Response given: 575

Challenge: Could you please provide reported selectivity ratio for Clc1ccc2[nH]c3c[n+](CCCCCCCC[n+]4ccc5c(c4)[nH]c4ccc(Cl)cc45)ccc3c2c1 ? Thanks!
Response given: 423

Challenge: Could you please provide reported selectivity ratio for Clc1ccc2[nH]c3c[n+](C/C=C\C[n+]4ccc5c(c4)[nH]c4ccc(Cl)cc45)ccc3c2c1 ? Thanks!
Response given: 540
